Reported Metric: melting point

# Molecule, melting point
data = [
    ("O=C1CSC(=O)N1Cc1nnc(-c2ccc([N+](=O)[O-])cc2)o1 [Compound 5i]", "153 to 155 °C"),
]

Which melting point is listed for O=C1CSC(=O)N1Cc1nnc(-c2ccc(O)cc2)o1 [Compound 5d] ?
192 to 194 °C

Which value of melting point has been reported for O=C1CSC(=O)N1Cc1nnc(-c2ccc(O)cc2O)o1 [Compound 5j] in the records?
204 to 206 °C

Fill in: melting point of COc1ccc(-c2nnc(CN3C(=O)CSC3=O)o2)cc1 [Compound 5f] is ___
178 to 180 °C

I have this molecule here, O=C1CSC(=O)N1Cc1nnc(-c2ccc(Cl)cc2)o1 [Compound 5g] , and I need its recorded melting point.
172 to 174 °C

* * *

# Study System: α-glucosidase
# Assay Procedure: In vitro α-glycosidase inhibitory assay
# Condition Info: mean of three replicates ±SD
Each entry below carries its reported IC50.
Field format: number, assumed µM, no unit text.

Previously resolved entries follow.
# Smiles Repr, Study System, Readout Unit, IC50
rows = [
    ("O=C1CSC(=O)N1Cc1nnc(-c2ccc([N+](=O)[O-])cc2)o1", "α-glucosidase", "µM", 25.2),
    ("O=C1CSC(=O)N1Cc1nnc(-c2ccc([N+](=O)[O-])cc2Cl)o1", "α-glucosidase", "µM", 28.2),
    ("O=C1CSC(=O)N1Cc1nnc(-c2ccc(Cl)cc2Cl)o1", "α-glucosidase", "µM", 17.6),
    ("O=C1CSC(=O)N1Cc1nnc(-c2ccc(Cl)cc2)o1", "α-glucosidase", "µM", 27.2),
    ("O=C1CSC(=O)N1Cc1nnc(-c2ccccc2)o1", "α-glucosidase", "µM", 33.5),
]

# IC50 lookup, item O=C1CSC(=O)N1Cc1nnc(-c2ccc(O)cc2)o1
45.3

Suppose we examine the compound O=C1CSC(=O)N1Cc1nnc(-c2ccc(O)cc2O)o1 ; what IC50 value has been reported?
17.2

IC50 lookup needed for COc1ccc(-c2nnc(CN3C(=O)CSC3=O)o2)cc1 , thanks.
51.3

* * *

IC50: recorded values
# Study System: α-amylase
# Assay Procedure: In vitro α-amylase inhibitory assay
# Condition Info: mean of three replicates ±SD
Numbers only; they are read as µM.

Consider the following illustrative entries.
# Molecule, IC50, µM
data = [
    ("O=C1CSC(=O)N1Cc1nnc(-c2ccccc2)o1 [Compound 5e]", 32.4),
    ("O=C1CSC(=O)N1Cc1nnc(-c2ccc(O)cc2O)o1 [Compound 5j]", 18.4),
    ("O=C1CSC(=O)N1Cc1nnc(-c2ccc([N+](=O)[O-])cc2Cl)o1 [Compound 5h]", 23.2),
    ("O=C1CSC(=O)N1Cc1nnc(-c2ccc(O)cc2)o1 [Compound 5d]", 55.4),
    ("O=C1CSC(=O)N1Cc1nnc(-c2ccc(Cl)cc2Cl)o1 [Compound 5a]", 18.6),
    ("O=C1CSC(=O)N1Cc1nnc(-c2ccc([N+](=O)[O-])cc2)o1 [Compound 5i]", 21.1),
    ("O=C1CSC(=O)N1Cc1nnc(-c2ccc(Cl)cc2)o1 [Compound 5g]", 28.9),
]

Next molecule, please.
Could you tell me which IC50 is on file for COc1ccc(-c2nnc(CN3C(=O)CSC3=O)o2)cc1 [Compound 5f] ?
39.2
